# Lookup of reported reverse-splicing fitness keyed by entry
B1: Azoarcus group I ribozyme (parent)
chain: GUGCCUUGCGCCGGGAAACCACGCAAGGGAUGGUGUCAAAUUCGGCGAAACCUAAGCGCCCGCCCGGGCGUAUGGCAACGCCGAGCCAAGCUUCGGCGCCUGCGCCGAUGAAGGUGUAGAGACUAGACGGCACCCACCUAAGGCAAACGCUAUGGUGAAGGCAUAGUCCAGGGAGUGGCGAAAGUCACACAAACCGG

# Variants of: B1
# ASSAY NAME: reverse-splicing fitness (ratio to wild type); higher = more active; in vitro selection; Mg2+ level not given

C82G A111C A145U C150U C169U = 0.0121
C82G A120U A145G U176C = 0.11

reverse-splicing fitness reported for this variant C82G A111C A120C A145G C150A U176A : 0.0118

reverse-splicing fitness reported for this variant A120C A145U C150U C169U U176A : 0.131

reverse-splicing fitness reported for this variant C82U A111C A120G A145U C150G U176G : 0.00282

reverse-splicing fitness reported for this variant C82U A111G A120C A145C C150U : 0.0145

reverse-splicing fitness reported for this variant A120U A145C C150U C169U U176C : 0.0258

reverse-splicing fitness reported for this variant C82U A111U A120G A145G C150G C169G : 0.00719

reverse-splicing fitness reported for this variant C82A A111U A120C A145C C150A : 0.012

reverse-splicing fitness reported for this variant C82A A111U A120G A145C C150G C169A U176C : 0.00639

reverse-splicing fitness reported for this variant C82U A145C U176G : 0.141

reverse-splicing fitness reported for this variant C82A A120C C150A U176A : 0.0151

reverse-splicing fitness reported for this variant C82U A145C C150G U176A : 0.0431

reverse-splicing fitness reported for this variant C82U A120C C150U C169U : 0.0165
